meta.source: paper PMC2756588

Biological target: T1, Lsb4, P32793
T1 sequence (P32793 402-468, looked up): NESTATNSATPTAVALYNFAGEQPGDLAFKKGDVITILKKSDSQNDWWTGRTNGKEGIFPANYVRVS
Assay: SPOT array
Conditions: median of control spots 397
Exercise: state measured SPOT intensity for each of the binders provided.
Hey, just send me the number, nothing else.

QUERY: Reported SPOT intensity for `NENKKLPPAPTVFGL` : what is it?
RESULT: 0

QUERY: One more binder: `HPRFVSPRIPSRIVK`
RESULT: 57

QUERY: Same lookup for `FSRRQSMDIPSKNRN` , please.
RESULT: 84

QUERY: Next up: `TKFRISLGLPVGAIM`
RESULT: 46

QUERY: Lookup `RTIRKLPLMSLSEYF`
RESULT: 2

QUERY: Same lookup for `PPIPNAPLSPAPAVP` , please.
RESULT: 0

QUERY: Same read-out for `ILARAILTIPRVLDK` ?
RESULT: 38

QUERY: `RFKRHRLEFPFNESE` , same question.
RESULT: 0

QUERY: Then `RSVKRPRRAPRPVVS` ?
RESULT: 34

QUERY: Also check `QQEQNTPPLPPKPKS`
RESULT: 776

QUERY: Now the binder `VPVAPPPPPASLGQS`
RESULT: 0

QUERY: Entry to check: `AGKRRLPLVRFKASD`
RESULT: 18

QUERY: Can you handle `HHKRRPTTIDVPGLT` next?
RESULT: 5
